Test system: α7 integrin (LacZ reporter in α7βgal+/− myoblasts)
procedure details: Myoblast α7+/LacZ integrin FDG assay (Burkin assay in myoblasts, 96-well)
Format: cell-based, mouse
test conditions: 0.5 uM; SU9516 analogs, 96-well, N=3-6
readout: Burkin Assay in Myoblasts, value relative to DMSO

1. O=C1Nc2ccccc2/C1=C/c1ccccc1Cl [MLS001202425-01] ... 1.2214
2. Cc1ccc2c(c1)/C(=C/c1ccccc1)C(=O)N2 [MLS001202354-01] ... 1.077
3. COc1cc(OC)c(/C=C2/C(=O)Nc3ccccc32)c(OC)c1 [NCGC00015546-04] ... 0.8923
4. Cc1ccccc1/C=C1\C(=O)Nc2ccc(F)cc21 [MLS001197838-01] ... 1.256
5. C=CCOc1ccc(C(=O)/C=C2/C(=O)Nc3ccccc32)cc1 [MLS001214264-01] ... 0.8908
6. Cc1ccc(/C=C2\C(=O)Nc3ccccc32)o1 [MLS000391588-01] ... 1.07
7. COc1ccc(C(=O)/C=C2/C(=O)Nc3ccccc32)cc1 [MLS001163848-01] ... 1.002
8. CC(C)Oc1ccc(C(=O)/C=C2/C(=O)Nc3ccccc32)cc1 [MLS001214276-01] ... 1.328
9. Cc1ccc2c(c1)/C(=C/c1ccccc1F)C(=O)N2 [MLS001202330-01] ... 0.9738
10. CCn1c(O)c(C(C#N)=C2N=c3ccccc3=N2)c2ccccc21 [MLS000564846-01] ... 0.8359
11. O=Nc1c(-c2c(O)[nH]c3cc(Br)ccc23)[nH]c2ccccc12 [NCGC00094112-04] ... 1.019
12. CCOc1cc2c3c(c1)C(C)=CC(C)(C)N3C(=O)C2=O [MLS000710233-01] ... 1.17
13. O=C(O)COc1ccccc1/C=C1\C(=O)Nc2ccc(Br)cc21 [MLS001196427-01] ... 1.02

* * *

System: α7 integrin (LacZ reporter in α7LacZ+/− myoblasts)
procedure details: qHTS of the LOPAC library and MLSMR (online screen, α7LacZ+/− myoblasts)
test conditions: Mus musculus, Myoblast, 48 h, read-out: Activity at 7.660 uM [%] **
Parameter: activation at 7.66 µM. Scope: all listed entries.
readout: activation at 7.66 µM (%)

1) COc1ccc(-c2c[nH]nc2-c2ccc(OC)cc2)cc1 [Compound 106] ... 40.4
2) O=C(CCc1ccccc1)c1nnc(-c2ccccc2)o1 [Compound 183] ... 24.4
3) COc1ccccc1OCC(=O)N/N=C1/C=C(C)CC1 [Compound 185] ... 0
4) COc1ccc(CCNC(=O)c2nn(C)c3c2CS(=O)(=O)c2ccccc2-3)cc1OC [Compound 74] ... 56.7
5) Cc1cc(-c2ccccc2)n2nc(N)nc2n1 [Compound 127] ... -2.95

* * *

Test system: α7 integrin (LacZ reporter in α7+/LacZ myotubes)
procedure details: Myotube α7 integrin FDG assay (Burkin assay in myotubes, 96-well)
Format: cell-based, mouse
test conditions: myotubes, 0.5 uM
Parameter: Burkin Assay in Myotubes, α7 integrin LacZ reporter signal relative to DMSO. Scope: all listed entries.
readout: Burkin Assay in Myotubes, α7 integrin LacZ reporter signal relative to DMSO

1) COc1ccccc1CC(=O)Nc1cc(S(=O)(=O)N2CCOCC2)ccc1N1CCOCC1 [MLS002170630-01] ... 1.03
2) O=C(Nc1ccccc1OC(=O)c1ccc(Cl)cc1)c1ccc(Cl)cc1 [MLS000573208-01] ... 0.9453
3) Cc1ccc(NS(=O)(=O)c2ccc(-c3ccc(=O)[nH]n3)o2)c(C)c1 [MLS001116535-01] ... 0.95
4) Cc1ccc(N2C(=O)C3NN=C(C(=O)OCc4ccccc4)C3C2=O)cc1 (stereo not drawn) [MLS000588210-01] ... 0.9425
5) CS(=O)(=O)c1ccc(Cl)c(NC(=O)CSc2nncn2-c2ccccc2)c1 [MLS001177364-01] ... 1.036
6) CCOc1cc(C)c(S(=O)(=O)N2CCCCC2)cc1C [MLS000693795-01] ... 0.8397
7) CCCCNC(=O)CSc1nnc(Cc2ccc(Cl)c(Cl)c2)c(=O)[nH]1 [MLS001177259-01] ... 0.948
8) Nc1ncnc(NCc2ccccc2)c1[N+](=O)[O-] [MLS000698826-01] ... 1.008
9) CC(=O)C1=C(C)Nc2ncnn2C1c1ccc(C)cc1 (stereo not drawn) [MLS001197779-01] ... 1.038

* * *

Parameter: CMV-LACZ in Myotubes, signal relative to DMSO. Scope: all listed entries.
Test system: β-galactosidase in CMV-LacZ C2C12 myotubes
procedure details: CMV-LacZ secondary screen in C2C12 myotubes (β-Gal stabilizing assay)
Type: cell-based, mouse
test conditions: 0.5 uM; C2C12 CMV-LacZ myotubes; fold relative to DMSO
readout: CMV-LACZ in Myotubes, signal relative to DMSO

1. O=C1Nc2ccccc2/C1=C/c1ccccc1F [MLS001202389-01] ... 1.1558
2. CCN(C(=O)c1ccc(S(=O)(=O)N(C)C)cc1)C(C)C(=O)Nc1ccc(C)cc1 (centres unmarked) [MLS001170856-01] ... 1.1095
3. CN1C(=O)N(CC(=O)N2CCN(S(=O)(=O)c3ccc(Cl)s3)CC2)C(=O)C12CCCCC2 [MLS002162890-01] ... 1.0682
4. CCCS(=O)(=O)c1nc(S(=O)(=O)c2ccc(C)cc2)c(N2CCCC2)s1 [MLS000113985-01] ... 1.0629
5. Cc1nc(Nc2ccccc2F)c2oc3ccccc3c2n1 [MLS001215123-01] ... 1.1657
6. O=C(CNC(=O)c1cccc(F)c1)N/N=C/c1cc(Br)ccc1OCc1ccccc1 [MLS000591667-01] ... 0.8600
7. Cc1[nH]c2ccc(F)cc2c1CCN(Cc1ccco1)C(=S)NC(C)(C)C [MLS000419286-01] ... 0.9990
8. CCc1ccc(S(=O)(=O)NCCOc2cccc3cccnc23)cc1 [MLS001034810-01] ... 1.1000

* * *

System: β-galactosidase in CMV-LacZ C2C12 myotubes
procedure details: CMV-LacZ secondary screen in C2C12 myotubes (β-Gal stabilizing assay)
Type: cell-based, mouse
test conditions: 20 uM; C2C12 CMV-LacZ myotubes; fold relative to DMSO
Source text: In order to determine compounds that acted to stabilize β-gal in myogenic cells, a CMV-LacZ C2C12 cell line was used in a secondary screen. The EGFP gene from the pEGFP (Clontech) vector was replaced by LACZ PCR product with digests of the vector/PCR product performed using EcoRI (NEB) and NotI (NEB) and ligated using T4 DNA Ligase (NEB) following standard procedures to produce the CMV-LACZ vector. […]
CMV-LACZ in Myotubes, signal relative to DMSO less than 1 is yes (1); CMV-LACZ in Myotubes, signal relative to DMSO greater than or equal to 1 is no (0).

1. CCCS(=O)(=O)N1CCCC(C(=O)c2cccc(Cl)c2)C1 (stereo not drawn) [MLS000862690-01] ... yes (1)
2. O=C(NCc1ccccc1)C(c1c(F)cccc1Cl)N(C(=O)c1csnn1)C1CC1 (stereo not drawn) [MLS001221908-01] ... no (0)
3. CC(NC(=O)c1cn(C)c2ccc(S(=O)(=O)N3CCCC3)cc2c1=O)c1ccccc1 (stereo not drawn) [MLS000913052-01] ... yes (1)
4. COC(=O)c1cc(S(=O)(=O)NCC2CCN(Cc3ccc(Cl)cc3)CC2)cn1C [MLS001095033-01] ... no (0)
5. COc1ccc(C(=O)Nc2ccc(Cl)cn2)cc1Cl [MLS000089748-01] ... no (0)
6. Cl.O=C(CN1CCOCC1)NCc1cc([N+](=O)[O-])ccc1O [MLS001211976-01] ... yes (1)
7. O=C(NCCCn1ccnc1)/C(=C/c1cccs1)NC(=O)c1ccco1 [MLS000712769-01] ... yes (1)
8. Cc1ccccc1OCC(=O)Nc1nnc(-c2ccco2)s1 [MLS000333610-01] ... yes (1)
9. CCCn1c(-c2cc(OC)c(OC)c(OC)c2)nc2c1c(=O)[nH]c(=O)n2Cc1ccccc1 [MLS001174740-01] ... no (0)
10. CCCCNc1nnc(Cc2ccc(Cl)cc2)c(=O)[nH]1 [MLS001215795-01] ... no (0)
11. CCOc1ccc2ccccc2c1C1NC(=O)N(C)C(C)=C1C(=O)OCCOC (stereo not drawn) [MLS001167424-01] ... no (0)
12. CC1(C)Cc2ccccc2-c2nc3n(c(=O)c21)CCS3 [MLS000711491-01] ... no (0)
13. O=c1[nH]c(CN2CCCCC2)nc2c1C1(CCCCC1)Cc1ccccc1-2 [MLS000028160-01] ... no (0)
14. Cn1c(=O)c2c(nc(Sc3ncnn3CC(=O)NC3CCCCC3)n2C)n(C)c1=O [MLS000663651-01] ... yes (1)
15. CCc1ccc(Sc2cc(C(=O)NCCN3CCOCC3)c3ccccc3n2)cc1 [MLS000584511-01] ... yes (1)
16. Cc1cc(-c2ccccc2)n2nc(N)nc2n1 [MLS000122180-01] ... yes (1)
17. N#Cc1nc(COc2ccccc2)oc1N1CCCC1 [MLS000036988-01] ... yes (1)
18. CCc1c(C)sc(NC(=O)c2ccco2)c1C#N [MLS001240181-01] ... no (0)
19. Cc1cc2ccccc2n2c(SCC(=O)NCc3cccs3)nnc12 [MLS000526364-01] ... no (0)
20. COc1cc(CNCc2ccc(C(=O)O)cc2)ccc1OCc1ccc(F)cc1.Cl [MLS001216405-01] ... no (0)
21. CCOC(=O)c1sc(=N)n(-c2ccc(OC)cc2)c1C [MLS000090135-01] ... no (0)
22. CCOC(=O)C1(Cc2cccc(Cl)c2)CCCN(C(=O)CCSC)C1 (stereo not drawn) [MLS001000299-01] ... yes (1)
23. CC(=O)Nc1ccc(NC(=O)c2cc(=O)c3cc(C)cc(C)c3o2)cc1 [MLS001200396-01] ... yes (1)
24. COC(=O)C(=O)C/C(=N/Nc1ncnc2ccccc12)c1ccc(Cl)cc1 [MLS001174719-01] ... yes (1)
25. COC(=O)c1ccc(N=Nc2ccccc2)cc1 [MLS001005712-01] ... no (0)
26. Oc1c(Br)cc(Br)cc1CNc1cccc2cccnc12 [MLS001183429-01] ... yes (1)
27. O=C(CNC(=O)c1cccc(F)c1)N/N=C/c1cc(Br)ccc1OCc1ccccc1 [MLS000591667-01] ... yes (1)
28. CNC(=O)CSc1nnc(-c2ccc3c(c2)OCO3)n1C [MLS000717689-01] ... yes (1)
29. CC(C)CN(C(=O)c1cccc(Cl)c1)c1c(N)n(Cc2ccccc2)c(=O)[nH]c1=O [MLS002163670-01] ... no (0)
30. CCCC(=O)OCC(=O)c1[nH]c(C)c(C(C)=O)c1C [MLS001007892-01] ... no (0)
